test: Cytotoxicity against LPS-activated […] cells assessed as cell viability at 30 uM after 24 hrs by MTT assay (reference value: 98.03 to 98.84%); type: toxicity, cell-based, Mus musculus, BV-2; conditions: read-out: Activity
Assign viability at 24 h, 30 µM to each entry below.
Numbers only, in %.

Molecule	Readout name	Test result
O=c1c(O)c(-c2ccc(O)c(O)c2)oc2cc(O)cc(O)c12 [QUERCETIN]	viability at 24 h, 30 µM	96.9
COc1cc([C@@H]2OC[C@H]3[C@@H]2CO[C@@H]3c2cc(OC)c(O[C@@H]3O[C@H](CO)[C@@H](O)[C@H](O)[C@H]3O)c(OC)c2)cc(OC)c1O	viability at 24 h, 30 µM	102
Oc1cc(O)c2c(c1)O[C@H](c1cc(O)c(O)c(O)c1)[C@@H](O)C2 [GALLOCATECHIN]	viability at 24 h, 30 µM	89.5
COc1cc([C@H]2OC[C@H]3[C@@H]2CO[C@@H]3c2cc(OC)c(O[C@@H]3O[C@H](CO)[C@@H](O)[C@H](O)[C@H]3O)c(OC)c2)cc(OC)c1O	viability at 24 h, 30 µM	95.4
COc1cc([C@@H]2OC[C@H]3[C@@H]2CO[C@H]3c2cc(OC)c(O[C@@H]3O[C@H](CO)[C@@H](O)[C@H](O)[C@H]3O)c(OC)c2)cc(OC)c1O[C@@H]1O[C@H](CO)[C@@H](O)[C@H](O)[C@H]1O	viability at 24 h, 30 µM	100

For every listed record, write down its viability at 24 h, 30 µM.
1. O=C(O)/C=C\c1ccc(O[C@@H]2O[C@H](CO)[C@@H](O)[C@H](O)[C@H]2O)cc1
2. Oc1cc(O)c2c(c1)O[C@H](c1ccc(O)c(O)c1)[C@H](O)C2 [(-)-EPICATECHIN]
3. COc1cc(CO)cc(OC)c1O[C@@H]1O[C@H](CO)[C@@H](O)[C@H](O)[C@H]1O
4. O=C(O)/C=C/c1ccc(O[C@@H]2O[C@H](CO)[C@@H](O)[C@H](O)[C@H]2O)cc1
5. O=c1c(O[C@@H]2O[C@H](CO)[C@@H](O)[C@H](O)[C@H]2O[C@@H]2O[C@H](CO)[C@@H](O)[C@H](O)[C@H]2O)c(-c2ccc(O)c(O)c2)oc2cc(O)cc(O)c12
6. COc1cc(/C=C/C(=O)O)cc(OC)c1O[C@@H]1O[C@H](CO)[C@@H](O)[C@H](O)[C@H]1O
7. C[C@@H]1O[C@@H](Oc2c(-c3ccc(O)c(O)c3)oc3cc(O)cc(O)c3c2=O)[C@H](O)[C@H](O)[C@H]1O [QUERCITRIN]

Response:
93
88
90.7
101
96.5
93.1
99.3

For every listed record, write down its viability at 24 h, 30 µM.
1. O=c1c(O)c(-c2cc(O)c(O)c(O)c2)oc2cc(O)cc(O)c12 [MYRICETIN]
2. Oc1cc(O)c2c(c1)O[C@H](c1cc(O)c(O)c(O)c1)[C@H](O)C2 [EPIGALLOCATECHIN]

Response:
[109, 100]

###

assay: Cytotoxicity against LPS-activated […] cells assessed as cell viability at 30 uM after 24 hrs by MTT assay (reference value: 98.03 to 98.84%); type: toxicity, cell-based, Mus musculus, BV-2; settings: read-out: Activity
Assign viability at 24 h, 30 µM to each entry below.
Please format your answer as a value with the unit trailing.

For every listed record, write down its viability at 24 h, 30 µM.
1. C[C@@H]1O[C@@H](OC[C@H]2O[C@@H](Oc3c(-c4ccc(O)cc4)oc4cc(O)cc(O)c4c3=O)[C@H](O)[C@@H](O)[C@@H]2O)[C@H](O)[C@H](O)[C@H]1O [NICOTIFLOROSIDE]
2. C[C@@H]1O[C@@H](OC[C@H]2O[C@@H](Oc3c(-c4ccc(O)c(O)c4)oc4cc(O)cc(O)c4c3=O)[C@H](O)[C@@H](O)[C@@H]2O)[C@H](O)[C@H](O)[C@H]1O
3. COc1cc(-c2oc3cc(O)cc(O)c3c(=O)c2O[C@@H]2O[C@H](CO[C@@H]3O[C@@H](C)[C@H](O)[C@@H](O)[C@H]3O)[C@@H](O)[C@H](O)[C@H]2O)ccc1O [NARCISSIN]
4. O=c1c(O[C@@H]2O[C@H](CO)[C@@H](O)[C@H](O)[C@H]2O)c(-c2ccc(O)c(O)c2)oc2cc(O)cc(O)c12
5. Oc1cc(O)c2c(c1)O[C@]1(c3ccc(O)c(O)c3)Oc3cc(O)c4c(c3[C@H]2[C@@H]1O)O[C@@]1(c2ccc(O)c(O)c2)Oc2cc(O)c3c(c2[C@@H]4[C@H]1O)O[C@@H](c1ccc(O)c(O)c1)[C@H](O)C3
6. C[C@@H]1O[C@@H](Oc2c(-c3cc(O)c(O)c(O)c3)oc3cc(O)cc(O)c3c2=O)[C@H](O)[C@H](O)[C@H]1O
7. Oc1cc(O)c2c(c1)O[C@H](c1ccc(O)c(O)c1)[C@@H](O)C2

Response:
1: 92.1%; 2: 91%; 3: 88.7%; 4: 87.7%; 5: 104%; 6: 99.3%; 7: 102%

Request: Reported viability at 24 h, 30 µM, compound C[C@@H]1O[C@@H](OC[C@H]2O[C@@H](Oc3c(-c4cc(O)c(O)c(O)c4)oc4cc(O)cc(O)c4c3=O)[C@H](O)[C@@H](O)[C@@H]2O)[C@H](O)[C@H](O)[C@H]1O : ____
Response: 86%

###

assay: Cytotoxicity against LPS-activated human BV2 cells assessed as cell viability at 1 uM after 24 hrs by MTT assay (reference value: 98.03 to 98.84%); assay type: toxicity, cell-based, Mus musculus, BV-2; conditions: read-out: Activity
Assign viability at 24 h, 1 µM to each entry below.
One number for each entry, in %.

# example entries with known answers
Compound	Readout name	Test result
Oc1cc(O)c2c(c1)O[C@H](c1cc(O)c(O)c(O)c1)[C@H](O)C2 [EPIGALLOCATECHIN]	viability at 24 h, 1 µM	95.3
O=c1c(O[C@@H]2O[C@H](CO)[C@@H](O)[C@H](O)[C@H]2O[C@@H]2O[C@H](CO)[C@@H](O)[C@H](O)[C@H]2O)c(-c2ccc(O)c(O)c2)oc2cc(O)cc(O)c12	viability at 24 h, 1 µM	84.5
O=C(O)/C=C\c1ccc(O[C@@H]2O[C@H](CO)[C@@H](O)[C@H](O)[C@H]2O)cc1	viability at 24 h, 1 µM	90.9
O=C(O)/C=C/c1ccc(O[C@@H]2O[C@H](CO)[C@@H](O)[C@H](O)[C@H]2O)cc1	viability at 24 h, 1 µM	101
C[C@@H]1O[C@@H](OC[C@H]2O[C@@H](Oc3c(-c4ccc(O)cc4)oc4cc(O)cc(O)c4c3=O)[C@H](O)[C@@H](O)[C@@H]2O)[C@H](O)[C@H](O)[C@H]1O [NICOTIFLOROSIDE]	viability at 24 h, 1 µM	98.7

Request: Reported viability at 24 h, 1 µM, compound COc1cc([C@@H]2OC[C@H]3[C@@H]2CO[C@@H]3c2cc(OC)c(O[C@@H]3O[C@H](CO)[C@@H](O)[C@H](O)[C@H]3O)c(OC)c2)cc(OC)c1O : ____
Response: 92.4
